Below, each entry is listed with its recorded Selectivity ratio.
Species on record: Homo sapiens
EXPERIMENTAL_PROTOCOL: Selectivity ratio of IC50 for inhibition of recombinant human CA9 to IC50 for inhibition of recombinant CA2 using 4-nitrophenylacetate as substrate by esterase assay
Lab note: jot the number down without any unit.

Observe how each entry below is paired with its result.
CO[C@@H]1O[C@H](CNC(=O)c2ccc(S(N)(=O)=O)cc2)[C@H](O)[C@H](O)[C@H]1O: 3.3
CO[C@@H]1O[C@H](CNC(=O)c2ccc(S(N)(=O)=O)cc2)[C@@H](O)[C@H](O)[C@H]1O: 1.5
CO[C@@H]1O[C@H](CNC(=O)c2ccc(S(N)(=O)=O)cc2)[C@@H](O)[C@H](O)[C@H]1N: 1.6

Could you now look at the following compound, please?
-- ask # lookup: Selectivity ratio of CO[C@@H]1O[C@H](CNC(=O)c2ccc(S(N)(=O)=O)cc2)[C@@H](O)[C@H](O)[C@@H]1O
-- reply 2.4
